# System under test: Estrogen receptor (Homo sapiens)
# Sequence (P03372 whole entry): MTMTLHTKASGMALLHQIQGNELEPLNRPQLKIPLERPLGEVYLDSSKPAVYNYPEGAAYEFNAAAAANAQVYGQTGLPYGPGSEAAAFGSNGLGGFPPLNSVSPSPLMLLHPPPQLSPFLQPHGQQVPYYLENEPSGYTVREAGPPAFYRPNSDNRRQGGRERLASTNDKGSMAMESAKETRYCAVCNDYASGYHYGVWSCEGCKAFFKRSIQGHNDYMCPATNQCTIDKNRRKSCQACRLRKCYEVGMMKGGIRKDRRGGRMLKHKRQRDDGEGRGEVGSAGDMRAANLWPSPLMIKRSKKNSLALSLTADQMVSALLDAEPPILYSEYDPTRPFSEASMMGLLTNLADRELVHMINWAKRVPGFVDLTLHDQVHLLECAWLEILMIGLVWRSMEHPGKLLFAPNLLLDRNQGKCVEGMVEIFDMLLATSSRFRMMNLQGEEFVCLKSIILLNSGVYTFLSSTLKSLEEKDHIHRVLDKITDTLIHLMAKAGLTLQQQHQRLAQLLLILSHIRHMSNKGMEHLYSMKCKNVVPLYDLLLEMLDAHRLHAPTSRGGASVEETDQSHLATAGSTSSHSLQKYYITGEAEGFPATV
Binary call on IC50 with cut-off 30 nM: strictly below means condition met, and equality or higher means condition not met.

# Molecular string, Class
rows = [
    ("CN(C)CCOc1ccc(Cn2c3ccccc3c3sc4cc(O)ccc4c32)cc1", "condition not met"),
    ("Oc1ccc2c(c1)sc1c3cc(O)ccc3n(Cc3ccc(OCCN4CCCC4)cc3)c21", "condition met"),
    ("Oc1ccc2c(c1)sc1c3cc(O)ccc3n(Cc3ccc(OCCN4CCOCC4)cc3)c21", "condition met"),
    ("Oc1ccc2c(c1)sc1c3ccccc3n(Cc3ccc(OCCN4CCOCC4)cc3)c21", "condition not met"),
]

Lab note: confirm whether the reported IC50 for this molecule is below 30 nM, equality not counting. molecule: "Oc1ccc2c(c1)sc1c3ccccc3n(Cc3ccc(OCCN4CCCC4)cc3)c21"
condition met

Lab note: confirm whether the reported IC50 for this molecule is below 30 nM, equality not counting. molecule: "CCN(CC)CCOc1ccc(Cn2c3ccc(O)cc3c3sc4cc(O)ccc4c32)cc1"
condition not met

Lab note: confirm whether the reported IC50 for this molecule is below 30 nM, equality not counting. molecule: "Oc1ccc2c(c1)sc1c3cc(O)ccc3n(Cc3ccc(OCCN4CCCCCC4)cc3)c21"
condition met
